- experiment summary: Water solubility (suspension in water or PBS-buffer, HPLC)
parameter: Water Solubility (µg/mL)

(P) CC(=O)O[C@H]1C(=O)[C@@]2(C)[C@H]([C@H](OC(=O)c3ccccc3)[C@]3(O)C[C@H](OC(=O)[C@H](OC(=O)CC(O)C(=O)O)[C@@H](NC(=O)c4ccccc4)c4ccccc4)C(C)=C1C3(C)C)[C@]1(OC(C)=O)CO[C@@H]1C[C@@H]2O (stereo partly shown)
(Q) CC(=O)O[C@H]1C(=O)[C@]2(C)[C@@H](OC(=O)CC(O)C(=O)O)C[C@H]3OC[C@@]3(OC(C)=O)[C@H]2[C@H](OC(=O)c2ccccc2)[C@]2(O)C[C@H](OC(=O)[C@H](O)[C@@H](NC(=O)c3ccccc3)c3ccccc3)C(C)=C1C2(C)C (stereo partly shown)
Could you tell me which of P and Q has the lower Water Solubility reading? Answer with the label corresponding to your selection. Q
